System: NCI-H460 lung
method: NCI-60 one-dose screen, 48 h
protocol-conditions: 10 µM unless noted
The panel holds about 83,000 compounds, 20% with a hit somewhere; the sample as a whole holds those more often. Active and inactive are the calls of the source. How the source made its calls: active means growth percent below 10; inactive means the rest.
Classes used: yes (active), no (inactive)

# molecule, label-value
data = [
    ("CCCn1cc2c(=O)nc3sc(Cc4ccccc4)c(C)n3c2n1", "no"),
    ("Cc1cc(C(=O)Nc2ncc(Cc3cccc(C(F)(F)F)c3)s2)c2ccccc2n1", "no"),
    ("Cc1ccc(C2=Nc3c(N)ncnc3NC(c3cccc(Nc4ccnc5cc(C(F)(F)F)ccc45)c3)C2)cc1 (centres undefined)", "no"),
    ("COC1=CC(c2ccc[nH]2)=N/C1=C\\c1[nH]c(C)c(CC(=O)OCc2ccccc2)c1CCC(=O)OCc1ccccc1", "no"),
    ("CCCCn1c(=O)[nH]c(N)c([C@@H]2c3c([nH]c(=O)n(CCCC)c3=O)Oc3ccc4ccccc4c32)c1=O", "no"),
    ("C=C1C(=O)O[C@H]2[C@H]1CC/C(COC(=O)c1cc3ccccc3s1)=C\\CC[C@@]1(C)O[C@@H]21", "yes"),
    ("CN(C)S(=O)(=O)c1cccc(C(=O)Nc2nc(-c3ccc(F)c(F)c3)cs2)c1", "no"),
    ("Clc1ccc2c(NC3CCC(N4CCOCC4)CC3)ccnc2c1 (centres undefined)", "no"),
    ("O=C(Nc1nc2ccccc2s1)c1ccc(F)cc1", "no"),
]
